// reported EC50 for each item listed
- test: The antiviral activity against HIV-1 in human peripheral blood mononuclear (PBM) cells expressed as median effective concentration
- Format: functional
- experimental-parameters: read-out: ED50 (the source's name)

Consider the reported EC50 for these compounds:
compound	quantity-kind	reported-measurement
CSc1ncnc2c1ncn2C1CCC(CO)O1 (configuration not stated)	EC50	3.6 µM
OCC1CCC(n2cnc3c(NCc4ccccc4)ncnc32)O1 (configuration not stated)	EC50	> 100 µM
CNc1ncnc2c1ncn2C1OC(CO)CC1F (configuration not stated)	EC50	4.3 µM
CN(C)c1ncnc2c1ncn2C1CCC(CO)O1 (configuration not stated)	EC50	2.3 µM
O=c1[nH]cnc2c1ncn2[C@H]1CC[C@@H](CO)O1 [DIDANOSINE]	EC50	5.5 µM

Item: CCNc1ncnc2c1ncn2C1CCC(CO)O1 (configuration not stated) | EC50: 5.2 µM

Record CNc1ncnc2c1ncn2C1CCC(CO)O1 (configuration not stated) . Reported EC50: 0.26 µM

Form field EC50, entry Nc1ncnc2c1ncn2[C@H]1CC[C@@H](CO)O1 : 0.62 µM

What the record says about Nc1nc(O)c2ncn([C@H]3CC[C@@H](CO)O3)c2n1 : EC50 is 0.88 µM

get_value(item= OCC1CCC(n2cnc3c(S)ncnc32)O1 (configuration not stated) , readout=EC50) returns 53.9 µM

The compound identified as OC[C@@H]1CC[C@H](n2cnc3cncnc32)O1 registered its EC50 at > 100 µM

So, OC[C@@H]1CC[C@H](n2cnc3c(Cl)ncnc32)O1 ? Its EC50 was 2.1 µM

Attribution: ChEMBL document CHEMBL1124783
